# credit: patent US5602100A

molecular target: μ-opioid receptor (Rattus norvegicus); construct: displacement of the radioligands from the rat brain membrane preparations; from tissue; host or cells: rat brain membrane preparations; experiment: biochemical; format: binding
Sequence (P33535 whole entry): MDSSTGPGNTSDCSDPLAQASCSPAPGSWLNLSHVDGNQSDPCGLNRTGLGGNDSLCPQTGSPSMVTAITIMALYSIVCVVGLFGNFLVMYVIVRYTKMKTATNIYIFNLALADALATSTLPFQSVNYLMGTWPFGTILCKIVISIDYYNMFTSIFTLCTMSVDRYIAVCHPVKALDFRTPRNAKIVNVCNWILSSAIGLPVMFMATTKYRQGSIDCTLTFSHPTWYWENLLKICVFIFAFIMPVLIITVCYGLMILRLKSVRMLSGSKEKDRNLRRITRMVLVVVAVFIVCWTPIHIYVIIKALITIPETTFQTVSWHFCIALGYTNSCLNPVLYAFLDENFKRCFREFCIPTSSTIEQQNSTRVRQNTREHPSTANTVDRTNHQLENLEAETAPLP
Non-standard residues stand in square brackets, D forms with d. Residues, ends and D or L forms follow the SMILES beside them. dNle = CCCC[C@@H](N)C(=O)O; dNva = CCC[C@@H](N)C(=O)O; Orn = NCCC[C@H](N)C(=O)O; Dab = NCC[C@H](N)C(=O)O; Nva = CCC[C@H](N)C(=O)O
measurement.kind: Ki (nM)
Express it in nM; write the number only.

Solved entries:
molecule	Ki / nM
CCC[C@@H](NC(=O)[C@@H](N)Cc1ccc(O)cc1)C(=O)N[C@@H](Cc1ccccc1)C(=O)N[C@@H](CCN)C(N)=O [BCH-2471, H-Tyr-D-Nva-Phe-A2 bu-NH2] (H-Y[dNva]F[Dab]-NH2)	0.56
CCCC[C@@H](NC(=O)[C@@H](N)Cc1ccc(O)cc1)C(=O)N[C@@H](Cc1ccccc1)C(=O)N[C@@H](CCN)C(N)=O [BCH-2472, H-Tyr-D-Nle-Phe-A2 bu-NH2] (H-Y[dNle]F[Dab]-NH2)	10.2
NCCC[C@H](NC(=O)[C@H](Cc1ccccc1)NC(=O)[C@@H](CO)NC(=O)[C@@H](N)Cc1ccc(O)cc1)C(N)=O [BCH-2461, H-Tyr-D-Ser-Phe-Orn-NH2] (H-Y[dS]F[Orn]-NH2)	13.2
NCC[C@H](NC(=O)[C@H](Cc1ccccc1)NC(=O)[C@@H](Cc1ccccc1)NC(=O)[C@@H](N)Cc1ccc(O)cc1)C(N)=O [BCH-2466, H-Tyr-D-Phe-Phe-A2 bu-NH2] (H-Y[dF]F[Dab]-NH2)	2.81
NCCCC[C@H](NC(=O)[C@H](Cc1ccccc1)NC(=O)[C@@H](CO)NC(=O)[C@@H](N)Cc1ccc(O)cc1)C(N)=O [BCH-2209, H-Tyr-D-Ser-Phe-Lys-NH2] (H-Y[dS]FK-NH2)	24.1
CC(C)C[C@@H](NC(=O)[C@@H](N)Cc1ccc(O)cc1)C(=O)N[C@@H](Cc1ccccc1)C(=O)N[C@@H](CCCN)C(N)=O [BCH-2459, H-Tyr-D-Leu-Phe-Orn-NH2] (H-Y[dL]F[Orn]-NH2)	77.5
CC(C)[C@@H](NC(=O)[C@@H](N)Cc1ccc(O)cc1)C(=O)N[C@@H](Cc1ccccc1)C(=O)N[C@@H](CCCN)C(N)=O [BCH-2458, H-Tyr-D-Val-Phe-Orn-NH2] (H-Y[dV]F[Orn]-NH2)	13.3
N=C(N)NCCC[C@@H](NC(=O)[C@@H](N)Cc1ccc(O)cc1)C(=O)N[C@@H](Cc1ccccc1)C(=O)N[C@@H](CCN)C(N)=O [BCH-1764, H-Tyr-D-Arg-Phe-A2 bu-NH2] (H-Y[dR]F[Dab]-NH2)	5.78

Sample CC(C)C[C@@H](NC(=O)[C@@H](N)Cc1ccc(O)cc1)C(=O)N[C@@H](Cc1ccccc1)C(=O)N[C@@H](CCCCN)C(N)=O [BCH-2207, H-Tyr-D-Leu-Phe-Lys-NH2] (H-Y[dL]FK-NH2) ; Ki observed: 168

Lab note: measured Ki of CCC[C@H](NC(=O)[C@H](Cc1ccccc1)NC(=O)[C@@H](CCCNC(=N)N)NC(=O)[C@@H](N)Cc1ccc(O)cc1)C(N)=O [BCH-1788, H-Tyr-D-Arg-Phe-Nva-NH2] (H-Y[dR]F[Nva]-NH2) was 11.7

molecule NCCCC[C@H](NC(=O)[C@H](Cc1ccccc1)NC(=O)[C@@H](Cc1ccccc1)NC(=O)[C@@H](N)Cc1ccc(O)cc1)C(N)=O [BCH-2460, H-Tyr-D-Phe-Phe-Lys-NH2] (H-Y[dF]FK-NH2) , Ki observed: 19

# Ki of CC[C@@H](C)[C@@H](NC(=O)[C@@H](N)Cc1ccc(O)cc1)C(=O)N[C@@H](Cc1ccccc1)C(=O)N[C@@H](CCN)C(N)=O [BCH-2468, H-Tyr-D-Ile-Phe-A2 bu-NH2] (H-Y[dI]F[Dab]-NH2) = 9.7

For this molecule ( NCCC[C@H](NC(=O)[C@H](Cc1ccccc1)NC(=O)[C@@H](Cc1ccccc1)NC(=O)[C@@H](N)Cc1ccc(O)cc1)C(N)=O [BCH-2457, H-Tyr-D-Phe-Phe-Orn-NH2] (H-Y[dF]F[Orn]-NH2) ), measured Ki is 7.39
